experiment: NCI Yeast Anticancer Drug Screen. Data for the rad52 strain (AID 147);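 note: 0% = growth of vehicle-treated control cultures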
details: S. cerevisiae rad52 mutant growth inhibition; at 1.2 µM; hits give high values
Description: Growth inhibition of yeast strains with defined genetic alterations is measured as a screen for potential anti-cancer activity. Selected strains with alterations in DNA damage repair or cell cycle control were exposed to compounds and growth inhibition was measured relative to vehicle treated controls. The strain used in this assay is rad52
The panel holds about 79,000 compounds, 15% with a hit somewhere; the sample as a whole holds those more often.

molecule | result.units | growth inhibition
O/N=C\c1c(O)ccc2ccccc12 | % | -4
CC12C(=O)OC(=O)C(c3ccccc31)c1ccccc12 | % | -8
CN(C)c1ccc2c(SCC(=O)OCC(=O)[C@@]3(O)CC[C@H]4[C@@H]5CCC6=CC(=O)C=C[C@]6(C)[C@H]5C(=O)C[C@@]43C)c3ccc(N(C)C)cc3nc2c1 | % | -7
CCCC/C([O-])=C1/C(=O)N(c2ccccc2)N=C1C.CCCC/C([O-])=C1/C(=O)N(c2ccccc2)N=C1C.[Cu+2] | % | 1
Cc1ccc([N+]2=NC(c3ccccc3)=NN(c3ccccc3)C2)cc1 | % | 9
CCOC1=C/C(=N\Nc2ccc([N+](=O)[O-])cc2)CCC1 | % | 0
O=C(Oc1ccc2c(c1)CN(Cc1ccccc1)CO2)c1ccccc1 | % | -3
O=C1c2ccccc2C(=O)N1CCCC(=O)n1cc(F)c(=O)[nH]c1=O | % | -31
CC(=O)OCC1OC2OC(=O)NC2C(OC(C)=O)C1OC(C)=O (stereo not given) | % | -3
C=C1C(=O)OC2CC1C(OC(C)=O)C/C(C)=C/CC/C(C)=C\CCC2(C)O (stereo not given) | % | -5

* * *

growth inhibition values by entry
experiment: NCI Yeast Anticancer Drug Screen. Data for the rad14 strain (AID 159);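 note: 0% = growth of vehicle-treated control cultures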
details: S. cerevisiae rad14 strain growth inhibition; at 3.7 µM; hits give high values
About 79,000 compounds went through this panel and 15% of them were active in at least one assay; those are over-represented in the sample as a whole. The source made the active and inactive calls. No stated cut-off is given here; in the data, active means growth inhibition above about 70%; inactive means the rest.

compound | growth inhibition
CCCCCCCCCCCCCCCCOP(=O)(O)OCC(N)C(=O)O (configuration not stated) | -4% (inactive)
O=C(O)Cc1cc(F)ccc1C(=O)O | -2% (inactive)
OC1(c2ccccc2)CCCc2ccc(Cl)cc21 (configuration not stated) | -1% (inactive)
Cc1nc(-c2cc3cc([N+](=O)[O-])ccc3oc2=O)cs1 | 6% (inactive)
O=C(NO)Nc1cc(Cl)cc(Cl)c1 | 20% (inactive)
CN(C)CCCCN1c2ccccc2Sc2ccc(N=[N+]=[N-])cc21 | 8% (inactive)
CCCCCOC(=S)SC(=O)OCC | -4% (inactive)
CCc1c(Cl)c(C)cc(O)c1Cl | -46% (inactive)
COc1cccc2c1C(=O)c1c(O)c3c(c(O)c1C2=O)C[C@@](O)(C(C)=O)C[C@@H]3OC1CC(OC(C)=O)C(OC(C)=O)C(C)O1 (some centres not stated) | -3% (inactive)
Cc1ccc(S/C(=C\C(=O)O)c2ccccc2)cc1 | 3% (inactive)
Cc1cc(O)c(C(C)C)cc1C1(c2cc(C(C)C)c(O)cc2C)OC(=O)c2ccccc21 | 1% (inactive)
Cc1cc(N(CCOS(C)(=O)=O)CCOS(C)(=O)=O)ccc1C=Nc1ccc(-c2csc(-c3ccccc3)n2)c(Cl)c1 | 53% (inactive)
